Measured values drawn from PubChem BioAssay (NCATS) for this set.

Tested on: CP291
Test: qHTS profiling for inhibitors of Plasmodium falciparum proliferation (AID 504749); also: nearly all actives have a fitted effect of over 60% in size
Settings: P. falciparum in erythrocytes, SYBR Green DNA, 72 h; series mostly up to 28.7 µM
Results filed as inconclusive are left out. Activity calls are given as the source filed them. Calls follow the shape of the dose curve; as a rule, active = well fitted inhibition curve with a large enough effect; inconclusive = small, poorly fitted or top-dose-only effect; inactive = flat fitted curve, though single readings scatter.
Classes used: active, inactive

[[record]]
compound = "C#C[C@]1(O)CC[C@@H]2[C@H]3CCC4=CC(=O)CC[C@H]4[C@H]3C(=C)C[C@@]21CC"
class_name = "active"

[[record]]
compound = "CNC(=O)[C@H](Cc1c[nH]c2ccccc12)NC(=O)[C@@H](CC(=O)NO)CC(C)C"
class_name = "inactive"

[[record]]
compound = "C=CCCCCCCCCC(=O)OC"
class_name = "inactive"

[[record]]
compound = "C=CCN1CCCC1CNC(=O)c1cc(S(N)(=O)=O)cc(OC)c1OC (stereo unspecified)"
class_name = "inactive"

[[record]]
compound = "COc1ccc(/C=C/C(=O)O)cc1"
class_name = "inactive"

[[record]]
compound = "O.O.O.O.O.O.O.O=S(=O)([O-])[O-].[Co+2]"
class_name = "active"


====

System: CP194
Experiment: qHTS profiling for inhibitors of Plasmodium falciparum proliferation (AID 504749); also: nearly all actives have a fitted effect of over 60% in size
Conditions: P. falciparum in erythrocytes, SYBR Green DNA, 72 h; series mostly up to 28.7 µM
Records with an inconclusive call do not appear. Activity calls are given as the source filed them. Calls follow the shape of the dose curve; as a rule, active = well fitted inhibition curve with a large enough effect; inconclusive = small, poorly fitted or top-dose-only effect; inactive = flat fitted curve, though single readings scatter.
Classes used: active, inactive

[[record]]
chemical_structure = "CC(C)(C)CC(C)(C)c1cc(Cc2cc(C(C)(C)CC(C)(C)C)cc(-n3nc4ccccc4n3)c2O)c(O)c(-n2nc3ccccc3n2)c1"
subject_of_test = "CP194"
class_name = "inactive"

[[record]]
chemical_structure = "COc1ccc(/C=N/NC(=O)c2ccncc2)c(C(=O)O)c1OC"
subject_of_test = "CP194"
class_name = "inactive"

[[record]]
chemical_structure = "COc1ccc2nc(NC(=O)Nc3ccccc3)sc2c1"
subject_of_test = "CP194"
class_name = "inactive"

[[record]]
chemical_structure = "OC[C@H]1O[C@@H]2O[C@H]3[C@H](O)[C@@H](O)[C@@H](O[C@H]4[C@H](O)[C@@H](O)[C@@H](O[C@H]5[C@H](O)[C@@H](O)[C@@H](O[C@H]6[C@H](O)[C@@H](O)[C@@H](O[C@H]7[C@H](O)[C@@H](O)[C@@H](O[C@H]1[C@H](O)[C@H]2O)O[C@@H]7CO)O[C@@H]6CO)O[C@@H]5CO)O[C@@H]4CO)O[C@@H]3CO"
subject_of_test = "CP194"
class_name = "inactive"

[[record]]
chemical_structure = "OC[C@H]1O[C@@](CO)(O[C@H]2O[C@H](CO)[C@@H](O)[C@H](O)[C@H]2O)[C@@H](O)[C@@H]1O"
subject_of_test = "CP194"
class_name = "inactive"

[[record]]
chemical_structure = "O[C@@H]([C@H](O)[C@H](O)CBr)[C@H](O)CBr"
subject_of_test = "CP194"
class_name = "inactive"

[[record]]
chemical_structure = "[O-][N+](=Nc1ccccc1)c1ccccc1"
subject_of_test = "CP194"
class_name = "inactive"

[[record]]
chemical_structure = "CSc1nc2cc(Oc3cccc(Cl)c3Cl)c(Cl)cc2[nH]1"
subject_of_test = "CP194"
class_name = "active"

